Reference source for all entries: paper PMC3355227

IC50 by entry:
TESTED ON: Plk1 polo-box domain (PBD), purified protein of the fluorescence polarization assay
EXPERIMENTAL DETAILS: fluorescence polarisation
Where no end group is shown, it is not given here. [ ]: non-standard residue; d: D form. The star is where a group is joined. pT = C[C@@H](OP(=O)(O)O)[C@H](N)C(=O)O; Butyl(4-Ph) = c1ccc(CCCC*)cc1
Output spec: scalar in µM, unitless text.

BINDER | ENDPOINT NAME | READING UNIT | VALUE REPORTED
P(Butyl(4-Ph))LHA[pT] [peptide 7(S4A)] | IC50 | µM | 4.15
GPMQS[pT]PLNG-OH (N-terminus assumed; SMILES CSCC[C@H](NC(=O)[C@@H]1CCCN1C(=O)CN)C(=O)N[C@@H](CCC(N)=O)C(=O)N[C@@H](CO)C(=O)N[C@H](C(=O)N1CCC[C@H]1C(=O)N[C@@H](CC(C)C)C(=O)N[C@@H](CC(N)=O)C(=O)NCC(=O)O)[C@@H](C)OP(=O)(O)O) [peptide GPMQSpTPLNG-OH (9)] | IC50 | µM | 1.12

Now for the binder whose IC50 we want.
Query (binder): P(Butyl(4-Ph))LHS[pT] [peptide 8] ; field requested: IC50
0.038
